system: Bacillus subtilis DB104 (SP-AmyQ fusion secretion); assay: AmyQ secretion efficiency, weighted average sort bin (1 = best secretion, 10 = worst) (bin number (weighted average, 1-10)); higher = lower secretion efficiency
Where AmyQ secretion efficiency equals or exceeds 4, the correct label is met; where it does not, the label is not met.

Asked: Evaluate "MKLKSKLLLSCLALSTVFVATTILNAPTH" : AmyQ secretion efficiency at minimum 4?
Given back: met

Asked: Request: "MKRLALGAALTIAPLSFASAEEN"
Given back: met

Asked: Request: "MKNMSCKLVVSVTLFFSFLDSTPGAHAQNS"
Given back: not met

Asked: Request: "MKKKLAAGLTASAIVGTTLVVTPAEAATR"
Given back: not met

Asked: Request: "MKKQIITATTAVVLGSTLFAAASSTGAASAQSI"
Given back: not met
